Source of measurements: paper PMC3692398

Biological target: hVMAT2 (Homo sapiens)
Sequence (Q05940 whole entry, the tested form may be a part): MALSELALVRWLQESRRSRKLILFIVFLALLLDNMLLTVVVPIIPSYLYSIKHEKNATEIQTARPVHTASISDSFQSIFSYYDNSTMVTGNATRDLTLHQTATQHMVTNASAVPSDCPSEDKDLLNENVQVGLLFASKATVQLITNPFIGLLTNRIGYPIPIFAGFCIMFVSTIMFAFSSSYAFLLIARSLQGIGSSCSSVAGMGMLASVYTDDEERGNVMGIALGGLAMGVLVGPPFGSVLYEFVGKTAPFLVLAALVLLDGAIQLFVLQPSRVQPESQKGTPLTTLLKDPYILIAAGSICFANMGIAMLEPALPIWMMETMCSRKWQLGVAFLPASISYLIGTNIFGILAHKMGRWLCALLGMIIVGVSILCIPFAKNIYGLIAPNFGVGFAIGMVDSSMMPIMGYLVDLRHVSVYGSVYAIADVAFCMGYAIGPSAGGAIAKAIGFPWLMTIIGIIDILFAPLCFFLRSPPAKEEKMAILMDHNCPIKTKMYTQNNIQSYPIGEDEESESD
Assay: Superfusion release of preloaded [3H]NE from HEK-hVMAT2 cells
Format: cell-based
Readings of Release of [3H]NE % maximum release ± sem or range, hVMAT2 for the listed molecules
Value Kind: Release of [3H]NE % maximum release ± sem or range, hVMAT2 (%)

- Molecule: "CCC(NC)C(=O)c1ccc2c(c1)OCO2 (stereo not drawn)"
  Unit Tag: "%"
  Result Value: 17.4
- Molecule: "CNC(C)C(=O)c1ccccc1 (stereo not drawn) [Methcathinone, methcathinone, reference compound]"
  Unit Tag: "%"
  Result Value: 42
- Molecule: "CNC(C)C(=O)c1ccc2c(c1)OCO2 (stereo not drawn)"
  Unit Tag: "%"
  Result Value: 21.8
- Molecule: "CNC(C)C(=O)c1ccc(C)cc1 (stereo not drawn)"
  Unit Tag: "%"
  Result Value: 33.1
- Molecule: "CCCC(C(=O)c1ccc2c(c1)OCO2)N1CCCC1 (stereo not drawn)"
  Unit Tag: "%"
  Result Value: 35.8
- Molecule: "CN[C@@H](C)Cc1ccccc1 [METH, (+)methamphetamine, reference compound]"
  Unit Tag: "%"
  Result Value: 95.5

* * *

Target: UniProt P08908
Sequence (P08908 whole entry): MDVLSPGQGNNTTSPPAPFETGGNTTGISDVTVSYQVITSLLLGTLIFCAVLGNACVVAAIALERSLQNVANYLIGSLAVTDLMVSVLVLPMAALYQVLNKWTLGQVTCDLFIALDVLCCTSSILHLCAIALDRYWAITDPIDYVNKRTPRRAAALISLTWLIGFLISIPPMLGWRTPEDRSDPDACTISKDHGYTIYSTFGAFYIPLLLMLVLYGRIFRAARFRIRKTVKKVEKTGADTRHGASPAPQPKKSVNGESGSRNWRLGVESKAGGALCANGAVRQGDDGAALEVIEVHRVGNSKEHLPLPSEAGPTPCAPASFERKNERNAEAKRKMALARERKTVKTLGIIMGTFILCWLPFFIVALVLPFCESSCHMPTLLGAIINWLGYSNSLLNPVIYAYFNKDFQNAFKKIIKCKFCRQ
Test: [3H]8-OH-DPAT binding, HEK-h5-HT1A
Conditions: read-out: Inhibition of radioligand binding Ki ± sem, h5-HT1A [3H]8OH-DPAT
Value Kind: Ki (µM)

- Molecule: "CCCC(C(=O)c1ccc2c(c1)OCO2)N1CCCC1 (stereo not drawn)"
  Value Kind: "Ki"
  Censor Symbol: "="
  Result Value: 14.8
- Molecule: "CCCC(C(=O)c1ccc2ccccc2c1)N1CCCC1 (stereo not drawn)"
  Value Kind: "Ki"
  Censor Symbol: "="
  Result Value: 4.64
- Molecule: "CCC(NC)C(=O)c1ccc2c(c1)OCO2 (stereo not drawn)"
  Value Kind: "Ki"
  Censor Symbol: ">"
  Result Value: 96
- Molecule: "CNC(C)C(=O)c1ccc(F)cc1 (stereo not drawn)"
  Value Kind: "Ki"
  Censor Symbol: "="
  Result Value: 71.6
- Molecule: "CNC(C)C(=O)c1ccccc1 (stereo not drawn) [Methcathinone, methcathinone, reference compound]"
  Value Kind: "Ki"
  Censor Symbol: "="
  Result Value: 29.1
- Molecule: "CNC(C)Cc1ccc2c(c1)OCO2 (stereo not drawn) [MDMA, 3,4-methylenedioxymethylamphetamine, reference compound]"
  Value Kind: "Ki"
  Censor Symbol: "="
  Result Value: 14.1

* * *

Target: hVMAT2 (Homo sapiens)
Experiment: Superfusion release of preloaded [3H]NE from HEK-hVMAT2 cells
Type: cell-based

- Compound: "CNC(C)C(=O)c1ccc2c(c1)OCO2 (stereo not drawn)"
  Target Under Test: "hVMAT2 (Homo sapiens)"
  EC50: "> 100 µM"
- Compound: "CN[C@@H](C)Cc1ccccc1 [METH, (+)methamphetamine, reference compound]"
  Target Under Test: "hVMAT2 (Homo sapiens)"
  EC50: "79 µM"
- Compound: "CNC(C)C(=O)c1ccc(C)cc1 (stereo not drawn)"
  Target Under Test: "hVMAT2 (Homo sapiens)"
  EC50: "66 µM"

* * *

Target: hNET (Homo sapiens)
Sequence (P23975 whole entry, the tested form may be a part): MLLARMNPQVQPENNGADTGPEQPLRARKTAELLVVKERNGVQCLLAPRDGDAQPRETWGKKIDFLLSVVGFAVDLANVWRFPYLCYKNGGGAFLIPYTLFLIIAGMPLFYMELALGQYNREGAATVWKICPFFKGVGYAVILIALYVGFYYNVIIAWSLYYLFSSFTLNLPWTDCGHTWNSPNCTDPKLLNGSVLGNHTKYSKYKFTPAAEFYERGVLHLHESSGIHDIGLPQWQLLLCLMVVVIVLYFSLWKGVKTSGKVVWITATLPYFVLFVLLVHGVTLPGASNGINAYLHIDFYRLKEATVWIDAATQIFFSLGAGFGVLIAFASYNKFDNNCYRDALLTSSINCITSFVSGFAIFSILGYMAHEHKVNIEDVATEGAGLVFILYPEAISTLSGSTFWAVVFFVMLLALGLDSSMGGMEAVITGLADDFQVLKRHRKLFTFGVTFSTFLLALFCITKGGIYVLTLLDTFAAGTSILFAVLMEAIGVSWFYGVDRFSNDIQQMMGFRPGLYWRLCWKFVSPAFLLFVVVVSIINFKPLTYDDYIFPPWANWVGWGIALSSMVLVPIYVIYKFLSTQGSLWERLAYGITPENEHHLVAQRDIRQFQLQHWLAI
Assay: Superfusion release of preloaded [3H]NE from HEK-hNET cells
Type: cell-based
Conditions: read-out: Drug-induced release of [3H]neurotransmitter EC50 ± sem, hNET [3H]NE; superfusion, AUC
pEC50: −log10 of the molar value.
Value Kind: pEC50

- Compound: "CNC(C)C(=O)c1ccc(F)cc1 (stereo not drawn) [4-FMC, 4-fluoromethcathinone]"
  Censor Symbol: "="
  Result Value: 5.82
- Compound: "CCCC(C(=O)c1ccc2ccccc2c1)N1CCCC1 (stereo not drawn) [Naphyrone, naphthylpyrovalerone]"
  Censor Symbol: "<"
  Result Value: 4.00
- Compound: "CCC(NC)C(=O)c1ccc2c(c1)OCO2 (stereo not drawn) [Butylone]"
  Censor Symbol: "<"
  Result Value: 4.00
- Compound: "CNC(C)C(=O)c1ccccc1 (stereo not drawn) [Methcathinone, methcathinone, reference compound]"
  Censor Symbol: "="
  Result Value: 6.64
- Compound: "CNC(C)Cc1ccc2c(c1)OCO2 (stereo not drawn) [MDMA, 3,4-methylenedioxymethylamphetamine, reference compound]"
  Censor Symbol: "="
  Result Value: 6.24
- Compound: "CCCC(C(=O)c1ccc2c(c1)OCO2)N1CCCC1 (stereo not drawn) [MDPV, 3,4-methylenedioxypyrovalerone]"
  Censor Symbol: "<"
  Result Value: 4.00
